Published IC50 for Dihydroorotate dehydrogenase (quinone), mitochondrial (Homo sapiens), assembled from different documents, is shown next.
measurementType: IC50 (nM)

The examples below pair each entry with its known result.
In [3]: df
Out[3]:
                          structurenotation  measurementtype  testvalue
0    COC(=O)/C(C#N)=C1\SCC(=O)N1c1ccc(F)cc1             IC50      10600
1        Cc1n[nH]c(Nc2ccc(C(F)(F)F)cc2)c1CO             IC50       2700
2  O=C(O)C1=C(C(=O)Nc2ccc(-c3cccc(OC(F)(F)F)c3)cc2[N+](=O)[O-])CCC1             IC50        390
3  CCn1c(CO)nn(-c2nc(O[C@@H](C)C(F)(F)F)c(C(=O)Nc3c(C)ccnc3C(F)F)cc2F)c1=O             IC50        2.4

(I) O=C(O)c1c(O)c(-c2ccc(Cl)cc2)nc2c(Cl)cccc12
(II) CCCOc1cc(NC(=O)/C(C#N)=C(/C)O)c(F)cc1-c1cccc(OC)c1
(III) COc1cc(-c2cc(C(=O)O)c3ccccc3n2)ccc1OCC(=O)Nc1ccc(F)cc1
Please order the records by their reported IC50, lowest number first. Record the ranking as a list of labels in the requested order.
II, III, I
(II: 34.6 nM, III: 1600 nM, I: 141000 nM)
